Values were extracted from the supplement of paper PMC10307832.

test system: LXF-289; assay: relative viability (nuclei count vs DMSO), 5 days (fraction); higher = more cells survive; details: first compound 2.53 µM
assay endpoint: relative viability
Output: the number by itself.

Below, 4 compounds whose answers are already recorded.
compound="Oc1nc(-c2ccc(C(F)(F)F)cc2)nc2c1CSCC2 [XAV939] + CC1(C)CCC(c2ccc(Cl)cc2)=C(CN2CCN(c3ccc(C(=O)NS(=O)(=O)c4ccc(N[C@H](CCN5CCOCC5)CSc5ccccc5)c(S(=O)(=O)C(F)(F)F)c4)cc3)CC2)C1 [Navitoclax] (partner 0.5 µM)" assayed_target=LXF-289 measurement=0.972
compound="C=C1C(=O)O[C@@H](CCCCCCCC)[C@@H]1C(=O)O [C-75] + CCNC(=O)c1noc(-c2cc(C(C)C)c(O)cc2O)c1-c1ccc(CN2CCOCC2)cc1 [Luminespib] (partner 0.01 µM)" assayed_target=LXF-289 measurement=0.641
compound="Oc1nc(-c2ccc(C(F)(F)F)cc2)nc2c1CSCC2 [XAV939] + O=C(CCCCCCC(=O)Nc1ccccc1)NO [Vorinostat] (partner 1 µM)" assayed_target=LXF-289 measurement=0.8
compound="C=C1C(=O)O[C@@H](CCCCCCCC)[C@@H]1C(=O)O [C-75] + Cc1nc(Nc2ncc(C(=O)Nc3c(C)cccc3Cl)s2)cc(N2CCN(CCO)CC2)n1 [Dasatinib] (partner 0.075 µM)" assayed_target=LXF-289 measurement=0.163

Fill blank: measured relative viability of the compound C=C1C(=O)O[C@@H](CCCCCCCC)[C@@H]1C(=O)O [C-75] + Cc1cc(Nc2cc(N3CCN(C)CC3)nc(Sc3ccc(NC(=O)C4CC4)cc3)n2)n[nH]1 [Tozasertib] (partner 0.1 µM) is ____. 0.119

Record request: relative viability value, item Oc1nc(-c2ccc(C(F)(F)F)cc2)nc2c1CSCC2 [XAV939] + Cc1nc(NC(=O)N2CCC[C@H]2C(N)=O)sc1-c1ccnc(C(C)(C)C(F)(F)F)c1 [Alpelisib] (partner 2 µM) 1.01
